All values here come from ChEMBL document CHEMBL1201862.

# Test system: UACC-62
# ASSAY_NOTES: NCI tumour cell line growth inhibition, 48 h
Calls of active or inactive are those of the source. Rule as the data show it: active = GI50 up to about 1.1 µM and inactive = higher.
Please answer using one outcome listed in Yes (active), No (inactive)

Could you kindly confirm the outcome this assay logged for COc1nc(C#CCCCC#N)nc(OC)n1 ?
No

What is the recorded call for this compound in the test? Oc1ccc(C(O)(c2ccccc2)c2ccccc2)c2ccccc12
No

What call does the record list for COc1ccc(/C=C/C(=O)c2sc(-n3nc(-c4ccccc4)cc3-c3ccccc3)nc2C)cc1OC ?
No

Fill in: this test's call for NC(CSC(c1ccccc1)(c1ccccc1)c1ccccc1)C(=O)O (stereo not given) is ___
Yes

Record lookup: outcome of this test for COc1ccc(/C=C/C(=O)Oc2ccc(/C=C3\CCCCC3=O)cc2)cc1 ?
No

For CCOC(=O)c1csc(NC(=O)CN2CCN(C)CC2)n1 , what call appears in the results of this test?
No

I would be grateful if you could indicate the recorded call for COC(=O)NC(Nc1ccc(Cl)cc1Cl)(C(F)(F)F)C(F)(F)F .
No

Would you mind telling me which call this test gave CCOC(=O)Oc1cc2c(c(OC)c1OC)-c1ccc(SC)c(=O)cc1C(NC(=O)C(F)(F)F)CC2 (stereo not given) ?
Yes

Please let me know the test result on file for O=C(C(O)c1cn(Cc2ccccc2)c2ccccc12)N1CCCCC1 (stereo not given) .
No

Which outcome was assigned to CCCCCCCCCCCCCC1=C(O)C(=O)C(CC2=C(O)C(=O)C(CCCCCCCCCCCCC)=C(O)C2=O)=C(O)C1=O in this test?
No
